- experimentNotes: 7-day repeated-dose TK in dogs
- Format: in vivo
- testParameters: female, beagle, dog, plasma, po, 100 mg/kg/day, day 1, PO 100 mg/kg/day, F
endpoint: Cmax (ng/mL)
Provide only the numeric value, understood in ng/mL.

Query :: Give Cmax for C[C@]12CC[C@@H]3c4ccc(B(O)O)cc4C[C@@H](CCCCCCCCC[S+]([O-])CCCC(F)(F)C(F)(F)F)[C@H]3[C@@H]1CC[C@@H]2O (stereo partly shown)
Result :: 7210

---

- System: CYP1A2
- experimentNotes: CYP induction (enzyme activity) in cryopreserved human hepatocytes, CYP1A2
- testParameters: human, plated cryopreserved human hepatocytes, Fold Induction, donor three, 50 µM
endpoint: fold induction at 72 h, 50 µM

Query :: Specify fold induction at 72 h, 50 µM for COc1ccc2[nH]c([S+]([O-])Cc3ncc(C)c(OC)c3C)nc2c1 (stereo not shown) [Omeprazole, omeprazole, reference compound] , system CYP1A2.
Result :: 6.37
